- test.target: FXR (Homo sapiens (Human), UniProt Q96RI1)
- Sequence (Q96RI1 262-486): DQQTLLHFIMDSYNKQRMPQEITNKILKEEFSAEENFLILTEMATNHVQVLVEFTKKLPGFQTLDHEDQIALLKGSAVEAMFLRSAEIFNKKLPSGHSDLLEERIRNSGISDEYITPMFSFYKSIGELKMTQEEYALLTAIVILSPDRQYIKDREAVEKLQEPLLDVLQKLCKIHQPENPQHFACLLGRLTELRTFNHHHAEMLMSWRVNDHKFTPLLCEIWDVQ
- assay.notes: transient human FXR/Gal4-luciferase reporter assay
- Assay type: cell-based
- measurement.setup: Gal4-hFXR LBD fusion in HEK293 reporter cells; relative to 8 μM GW-4064
- Protocol: The exemplified compounds of the present invention were tested in the transient human FXR/Gal4-luciferase reporter assay, and assay results were described in the EXAMPLES section hereinbefore. A Gal4-hFXR fusion construct reporter system was used as the primary assay to characterize compound activity. A construct including 5 copies of the Gal4 promoter response element upstream of a firefly luciferase reporter cDNA was stably expressed in HEK293 cells. […]
Threshold 50 nM. EC50 below it: 1. EC50 at it or above: -1.

line.notation	test.target	group.label
O=C(O)c1ccc(NCC23CCC(OCc4c(-c5c(Cl)cccc5Cl)noc4C4CC4)(CC2)CC3)nc1	FXR (Homo sapiens (Human), UniProt Q96RI1)	-1

Moving on to another compound below.
Could you please tell me whether EC50 recorded for O=C(O)c1cnc(N2CCC2)c(C#CC23CCC(OCc4c(-c5c(Cl)cncc5Cl)noc4C4CC4)(CC2)CC3)c1 is less than 50 nM? 1

---

- test.target: FXR (Homo sapiens (Human), UniProt Q96RI1)
- assay.notes: transient human FXR/Gal4-luciferase reporter assay
- Assay type: cell-based
- measurement.setup: Gal4-hFXR LBD fusion in HEK293 reporter cells; relative to 8 μM GW-4064
Kindly state pEC50 for each of the entries shown.
Give bare numbers, as −log10 of the molar value.

Worked examples, 4 compounds total:
compound	pEC50
CNC(=O)Cc1ccc(/C=C/C23CCC(OCc4c(-c5c(Cl)cncc5Cl)noc4C4CC4)(CC2)CC3)cc1	6.41
COc1ncc(-c2noc(C34CCC(OCc5c(-c6c(Cl)cncc6Cl)noc5C5CC5)(CC3)CC4)n2)cc1C(=O)O	6.94
O=C(O)c1cc2cc(C#CC34CCC(OCc5c(-c6c(Cl)cncc6Cl)noc5C5CC5)(CC3)CC4)ccc2c(N2CCOCC2)n1	7.06
O=C(O)c1cc(OC2CCOC2)c2nc(C34CCC(OCc5c(-c6c(Cl)cncc6Cl)noc5C5CC5)(CC3)CC4)ccc2c1 (stereo not shown)	6.54

Respectfully, I request pEC50 for each entry included below.
1. CCc1nc(C(=O)O)cc2ccc(OCC34CCC(OCc5c(-c6c(Cl)cncc6Cl)noc5C5CC5)(CC3)CC4)cc12
2. O=C(O)COc1ccc(C#CC23CCC(OCc4c(-c5c(Cl)cncc5Cl)noc4C4CC4)(CC2)CC3)c(F)c1
3. O=C(O)c1cnc2cc(/C=C/C34CCC(OCc5c(-c6c(Cl)cncc6Cl)noc5C5CC5)(CC3)CC4)ccn12

8.05
5.50
6.71

---

- test.target: FXR (Homo sapiens (Human))
- assay.notes: FXR EC50 (FXR agonist activity reported with each example)
- Type: cell-based
Kindly state EC50 for each of the entries shown.
Answers are plain numbers, in nM.

Worked examples, 2 compounds total:
line.notation	EC50, nM
O=C(O)c1cc(C(F)(F)F)c2nc(C34CCC(OCc5c(-c6c(Cl)cncc6Cl)noc5C5CC5)(CC3)CC4)ccc2c1	56
O=C(O)c1cccc(-c2noc(C34CCC(OCc5c(-c6ccccc6C(F)(F)F)noc5C5CC5)(CC3)CC4)n2)n1	2100

Next, consider the following compound.
Given the entry CC(C)Oc1nc(C(=O)O)cc2ccc(/C=C/C34CCC(OCc5c(-c6c(Cl)cncc6Cl)noc5C5CC5)(CC3)CC4)cc12 , report its measured EC50. 62
